- Test system: OVCAR-8 ovarian
- Test Details: NCI tumour cell line growth inhibition, 48 h; in the data active means GI50 below about 0.43 µM; inactive means the rest
Tick one outcome: active, inactive

Q: What did this assay record as the result for "COc1ccc(-c2nnc3n(C)c(=O)c4ccccc4n23)cc1O" ?
Ans: inactive

Q: I'd appreciate the recorded outcome for O=C1Nc2ccccc2C12CC(c1ccccc1)=NN2 (stereo not drawn) from this test.
Ans: inactive

Q: Which outcome was entered for the molecule "c1ccc(-c2n(Cc3ccc4ccccc4n3)c3ccccc3[n+]2Cc2ccc3ccccc3n2)cc1" in this test?
Ans: active

====

- Tested on: SK-MEL-28 melanoma
- Test Details: NCI tumour cell line growth inhibition, 48 h
Measured Quantity: TGI

So for "Cc1c(N2C(=O)/C(=C\c3ccc(O)cc3)N=C2c2ccccc2)c(=O)n(-c2ccccc2)n1C" , the logged TGI turned out to be > 100 µM

The value of TGI measured for the compound "NCCCCNCCCN" turned out to be > 100 µM

The compound CC(C)(C)OC(=O)NC(CCCCNC(=O)OCc1ccccc1)C(=O)NC(CCCCNC(=O)OCc1ccccc1)C(=O)ON1C(=O)CCC1=O (configuration not stated) showed TGI equal to > 100 µM

Value of TGI reported for the compound "CC(=O)NNC(=O)c1nn(-c2ccc(Cl)cc2)cc1OC(C)=O" is > 100 µM

Value of measured TGI for the entry "CC(=O)c1ccc2c(c1)oc(=O)n2CCN(C)C" : > 100 µM

Documented TGI of "O=C(CCCn1ccnc1[N+](=O)[O-])NCCn1cnc([N+](=O)[O-])c1" : > 100 µM

Record "C=C1c2nc3ccccc3n2C=C(c2ccc(Cl)cc2)N1c1ccccc1" . Reported TGI: 24 µM

Measured TGI, "NC(=O)Nc1ccc2ncnc(Nc3ccc(Cl)cc3)c2c1" : > 100 µM

# compound N#CSCC1COc2ccccc2O1 (configuration not stated) ; its TGI = > 10 µM

The reported TGI of the compound "COc1cc(Nc2ncc3c(n2)-c2ccc(Cl)cc2C(c2c(F)cccc2OC)=NC3)ccc1C(=O)O" was > 92 µM

Documented TGI of "CC1=C(C(=O)Nc2ccccc2C)C(c2ccc(N(C)C)cc2)C(C(=O)Nc2ccccc2C)=C(C)N1" : > 100 µM

Form: compound = "CC1(C)Oc2ccc(Cl)cc2C12CC2" ; TGI = 41.7 µM

Just so you know, measured TGI for "O=C([C@H](O)[C@@H](O)c1ccc(Br)cc1)C12CC3CC(CC(C3)C1)C2" came out at > 68.6 µM

Briefly, TGI measured for "CC(C)OC(=O)c1ccc(CCC2=CC(=O)C(Br)=CC2=O)cc1" : 32.7 µM

Measured TGI of COc1cc2c(cc1OCCCCCCNC(=O)c1cc3ccccc3[nH]1)N=CC1CCCN1C2=O (configuration not stated) : > 100 µM

Measured TGI of "CCOC(=O)Nc1nc2c(F)c(F)c(F)cc2s1" : > 100 µM

C=CCN1CC2CN=NC2(C#N)C1 (configuration not stated) yielded TGI of > 100 µM

get_value(item= "COc1ccc(-c2nnc3n(C)c(=O)c4ccccc4n23)cc1O" , readout=TGI) returns > 100 µM

// sample "CCOC(=O)c1c(-c2[nH]c(C(=O)OCc3ccccc3)c(C)c2C(=O)OCC)[nH]c(C(=O)OCc2ccccc2)c1C" , its TGI was > 100 µM

Sure, the documented TGI for "CN(C)c1nc(N(C)C)nc(N(C)CN(C)c2nc(N(C)C)nc(N(C)C)n2)n1" is > 100 µM

GET /value?item= "Cc1ccccc1NC(=S)N/N=C(/c1ccccc1)c1ccccn1" &field=TGI returns 16.8 µM

Please fill in: TGI reported for "O=C1c2cnccc2Cc2cccc3c2N1c1ccccc1S3" = 78.2 µM

meta.source: PubChem BioAssay (NCI)
